B1: glmS ribozyme (parent)
chain: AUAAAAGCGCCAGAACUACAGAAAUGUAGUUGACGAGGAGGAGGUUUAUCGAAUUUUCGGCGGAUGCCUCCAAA

# Variants of: B1
# protocolText: self-cleavage kobs at 160 uM GlcN6P; higher = faster cleavage; RNA array
# experimentalConditions: with glucosamine-6-phosphate
Variants at the floor of the assay were thinned out.

{"mut": "G35A G43U C50G A64G", "limitOperator": "<", "self-cleavage kobs at 160 uM GlcN6P [s⁻¹]": "1e-05"}
{"mut": "G41A C68G", "limitOperator": "<", "self-cleavage kobs at 160 uM GlcN6P [s⁻¹]": "1e-05"}
{"mut": "U55G C70U", "limitOperator": "=", "self-cleavage kobs at 160 uM GlcN6P [s⁻¹]": 0.00151}
{"mut": "C10A G41C", "limitOperator": "<", "self-cleavage kobs at 160 uM GlcN6P [s⁻¹]": "1e-05"}
{"mut": "G9A C11U C16U G63A U65G C68G", "limitOperator": "=", "self-cleavage kobs at 160 uM GlcN6P [s⁻¹]": "4.96e-05"}
{"mut": "C34U U47A A48G U69G", "limitOperator": "<", "self-cleavage kobs at 160 uM GlcN6P [s⁻¹]": "1e-05"}
{"mut": "C8U C50G G63U", "limitOperator": "=", "self-cleavage kobs at 160 uM GlcN6P [s⁻¹]": 0.000108}
{"mut": "C34A G37U A48G", "limitOperator": "<", "self-cleavage kobs at 160 uM GlcN6P [s⁻¹]": "1e-05"}
{"mut": "G35C C50A", "limitOperator": "<", "self-cleavage kobs at 160 uM GlcN6P [s⁻¹]": "1e-05"}
{"mut": "G44A C68G", "limitOperator": "<", "self-cleavage kobs at 160 uM GlcN6P [s⁻¹]": "1e-05"}
{"mut": "G29U A53U", "limitOperator": "=", "self-cleavage kobs at 160 uM GlcN6P [s⁻¹]": 0.000275}
{"mut": "C61G C71G", "limitOperator": "=", "self-cleavage kobs at 160 uM GlcN6P [s⁻¹]": 0.000119}
{"mut": "G41A A64G", "limitOperator": "=", "self-cleavage kobs at 160 uM GlcN6P [s⁻¹]": "7.21e-05"}
{"mut": "U31G G40U", "limitOperator": "=", "self-cleavage kobs at 160 uM GlcN6P [s⁻¹]": 0.000115}
{"mut": "A36G C58U C70U", "limitOperator": "<", "self-cleavage kobs at 160 uM GlcN6P [s⁻¹]": "1e-05"}
{"mut": "G40U U46G", "limitOperator": "=", "self-cleavage kobs at 160 uM GlcN6P [s⁻¹]": "7.71e-05"}
{"mut": "G59C G60A", "limitOperator": "<", "self-cleavage kobs at 160 uM GlcN6P [s⁻¹]": "1e-05"}
{"mut": "A33U C67G", "limitOperator": "<", "self-cleavage kobs at 160 uM GlcN6P [s⁻¹]": "1e-05"}
{"mut": "C8G G37U", "limitOperator": "<", "self-cleavage kobs at 160 uM GlcN6P [s⁻¹]": "1e-05"}
{"mut": "U49C G51C G60C C68U", "limitOperator": "<", "self-cleavage kobs at 160 uM GlcN6P [s⁻¹]": "1e-05"}
{"mut": "A14C U55A", "limitOperator": "=", "self-cleavage kobs at 160 uM GlcN6P [s⁻¹]": 0.000546}
{"mut": "A12C U65A", "limitOperator": "=", "self-cleavage kobs at 160 uM GlcN6P [s⁻¹]": 0.000134}
{"mut": "U56A U69G", "limitOperator": "=", "self-cleavage kobs at 160 uM GlcN6P [s⁻¹]": "5.23e-05"}
{"mut": "G38C G41C", "limitOperator": "<", "self-cleavage kobs at 160 uM GlcN6P [s⁻¹]": "1e-05"}
{"mut": "A15C U31C A39U A42C", "limitOperator": "<", "self-cleavage kobs at 160 uM GlcN6P [s⁻¹]": "1e-05"}
{"mut": "U31A C68U", "limitOperator": "=", "self-cleavage kobs at 160 uM GlcN6P [s⁻¹]": "6.73e-05"}
{"mut": "G9A U31G", "limitOperator": "<", "self-cleavage kobs at 160 uM GlcN6P [s⁻¹]": "1e-05"}
{"mut": "C16A A52G G63U G66U", "limitOperator": "<", "self-cleavage kobs at 160 uM GlcN6P [s⁻¹]": "1e-05"}
{"mut": "A14C A15G", "limitOperator": "=", "self-cleavage kobs at 160 uM GlcN6P [s⁻¹]": 0.000127}
{"mut": "C8U G13C", "limitOperator": "<", "self-cleavage kobs at 160 uM GlcN6P [s⁻¹]": "1e-05"}
{"mut": "C34A A39G A48U C68A", "limitOperator": "<", "self-cleavage kobs at 160 uM GlcN6P [s⁻¹]": "1e-05"}
{"mut": "A42U G51C", "limitOperator": "<", "self-cleavage kobs at 160 uM GlcN6P [s⁻¹]": "1e-05"}
{"mut": "A42G C70G", "limitOperator": "=", "self-cleavage kobs at 160 uM GlcN6P [s⁻¹]": "8.07e-05"}
{"mut": "A12G G29A G41C", "limitOperator": "<", "self-cleavage kobs at 160 uM GlcN6P [s⁻¹]": "1e-05"}
{"mut": "U45C G60C", "limitOperator": "<", "self-cleavage kobs at 160 uM GlcN6P [s⁻¹]": "1e-05"}
{"mut": "A33U A64C", "limitOperator": "<", "self-cleavage kobs at 160 uM GlcN6P [s⁻¹]": "1e-05"}
{"mut": "G44A A48G G51U G59A", "limitOperator": "<", "self-cleavage kobs at 160 uM GlcN6P [s⁻¹]": "1e-05"}
{"mut": "U45C G63U", "limitOperator": "<", "self-cleavage kobs at 160 uM GlcN6P [s⁻¹]": "1e-05"}
{"mut": "A15U A39G", "limitOperator": "=", "self-cleavage kobs at 160 uM GlcN6P [s⁻¹]": 0.000706}
{"mut": "G29A U56C", "limitOperator": "=", "self-cleavage kobs at 160 uM GlcN6P [s⁻¹]": "3.68e-05"}
{"mut": "A15U U69G", "limitOperator": "=", "self-cleavage kobs at 160 uM GlcN6P [s⁻¹]": "4.3e-05"}
{"mut": "A33C A42C", "limitOperator": "<", "self-cleavage kobs at 160 uM GlcN6P [s⁻¹]": "1e-05"}
{"mut": "C61U C67U", "limitOperator": "<", "self-cleavage kobs at 160 uM GlcN6P [s⁻¹]": "1e-05"}
{"mut": "U46G U54G", "limitOperator": "=", "self-cleavage kobs at 160 uM GlcN6P [s⁻¹]": 0.000596}
{"mut": "C10U C68G C70U", "limitOperator": "=", "self-cleavage kobs at 160 uM GlcN6P [s⁻¹]": "3.3e-05"}
{"mut": "A39U C67U", "limitOperator": "=", "self-cleavage kobs at 160 uM GlcN6P [s⁻¹]": 0.000573}

Data origin: the supplement of paper PMC7125110
